Values were extracted from patent US10245240B2.

System: PTEN-P2/GFP prostate cancer cells
test-protocol: Effect of naphthoquinone analogs on PTEN-P2/GFP cell proliferation (CellTiter96 formazan-based viability assay)
condition-description: Mus musculus, 24 h, 10 μM, medium with 10% FBS and DHT
# viability at 10 µM annotations
Field: numeric (%). Do not append units.

CC1=CC(=O)c2c(O)cccc2C1=O [Plumbagin, 5-hydroxy-2-methylnaphthalene-1,4-dione]; 0.6
O=C1C=CC(=O)c2ccccc21; 83
COC1=C(OC)C(=O)c2ccccc2C1=O; 2.4
COC1=CC(=O)c2ccccc2C1=O; 43.5
O=C1C=C(O)C(=O)c2ccccc21; 83.1
O=C1C(O)=C(C2=C(O)C(=O)c3ccccc3C2=O)C(=O)c2ccccc21; 98.6

Now for the compound whose viability at 10 µM we want.
[ask] Which measured viability at 10 µM belongs to CC1=CC(=O)c2ccccc2C1=O , tested on PTEN-P2/GFP prostate cancer cells?
[reply] 77.5

---

Tested on: PTEN-P2/GFP prostate cancer cells
test-protocol: Effect of naphthoquinone analogs on PTEN-P2/GFP cell proliferation (CellTiter96 formazan-based viability assay)
condition-description: Mus musculus, 24 h, 5 μM, medium with 10% FBS and DHT
Strictly below 80% in viability at 5 µM: satisfied. Otherwise: not satisfied.

Answered cases to consult:
COC1=CC(=O)c2ccccc2C1=O [2-methoxy-1,4-naphthoquinone]; not satisfied
O=C1C(O)=C(C2=C(O)C(=O)c3ccccc3C2=O)C(=O)c2ccccc21 [Lawsone dimer]; not satisfied
CC1=CC(=O)c2ccccc2C1=O [Menadione, menadione]; not satisfied
O=C1C=CC(=O)c2ccccc21 [1,4-naphthoquinone]; not satisfied
CC(C)=CCC1=C(O)C(=O)c2ccccc2C1=O [Lapachol]; not satisfied
O=C1C=CC(=O)c2c(O)cccc21 [Juglone]; satisfied
COC1=C(OC)C(=O)c2ccccc2C1=O [DMNQ, 2,3-Dimethoxy-1,4-naphthoquinone]; not satisfied
O=C1C(SCCO)=C(SCCO)C(=O)c2ccccc21 [NSC 95397]; satisfied

Here is another compound to look at.
[ask] Here's an entry: CC1=CC(=O)c2c(O)cccc2C1=O [Plumbagin, 5-hydroxy-2-methylnaphthalene-1,4-dione] . Is its viability at 5 µM below 80%?
[reply] satisfied

---

System: PTEN-P2/GFP prostate cancer cells
test-protocol: Effect of naphthoquinone analogs on PTEN-P2/GFP cell proliferation (CellTiter96 formazan-based viability assay)
condition-description: Mus musculus, 24 h, 10 μM, medium with 10% FBS and DHT
property-measured: viability at 10 µM
Just the number plus its unit, please.

Worked examples, 2 compounds total:
O=C1C(SCCO)=C(SCCO)C(=O)c2ccccc21; 36.3%
CC(C)=CCC1=C(O)C(=O)c2ccccc2C1=O; 99.6%

Now for the compound whose viability at 10 µM we want.
[ask] If you can, please state the reported viability at 10 µM value of O=C1C=CC(=O)c2c(O)cccc21 .
[reply] 1.1%
